Read-out: Interleukin 6 (IL6), IL6 (gene 3569)
Assay Method Text: LTEA_HepaRG_IL6: Life Technologies and Expression Analysis (LTEA) Assay for Interleukin 6 (IL6) using HepaRG (AID 2283509)
Condition Set: mRNA level, 48 h; actives raise or lower the signal
Activity calls are given as the source filed them. Rule for the calls: active = hit-call score of the fitted dose curve at least 0.9, where 1 is the maximum; inactive = score below 0.9.
Outcome codes: active, inactive

>>> category("COP(=S)(OC)Oc1ccc([N+](=O)[O-])cc1")
"inactive"
>>> category("Clc1ccccc1-c1nnc(-c2ccccc2Cl)nn1")
"inactive"
>>> category("COc1nn(CSP(=S)(OC)OC)c(=O)s1")
"inactive"
>>> category("CC[C@H](C)[C@H]1O[C@]2(C=C[C@@H]1C)C[C@@H]1C[C@@H](C/C=C(\\C)[C@@H](O[C@H]3C[C@H](OC)[C@@H](O[C@H]4C[C@H](OC)[C@@H](O)[C@H](C)O4)[C@H](C)O3)[C@@H](C)/C=C/C=C3\\CO[C@@H]4[C@H](O)C(C)=C[C@@H](C(=O)O1)[C@]34O)O2 (tested in a mixture with another compound)")
"active"
>>> category("O=C(O)C(F)(F)C(F)(F)C(F)(F)C(F)(F)C(F)(F)C(F)(F)C(F)(F)F")
"inactive"
>>> category("COP(=O)(OC)OC=C(Cl)Cl")
"inactive"
>>> category("CCCN(CCC)c1c([N+](=O)[O-])cc(C(F)(F)F)cc1[N+](=O)[O-]")
"inactive"
>>> category("N#CN")
"inactive"
>>> category("O=S1OCC2C(CO1)C1(Cl)C(Cl)=C(Cl)C2(Cl)C1(Cl)Cl (stereo unspecified)")
"inactive"
>>> category("CNC(=O)Oc1ccccc1OC(C)C")
"inactive"
>>> category("CC(C)(C)C(O)C(Oc1ccc(Cl)cc1)n1cncn1 (stereo unspecified)")
"inactive"
>>> category("O=[N+]([O-])/N=C1\\NCCN1Cc1ccc(Cl)nc1")
"inactive"
>>> category("Oc1ccc(Cl)cc1Cc1ccccc1")
"inactive"
>>> category("C[C@H]1[C@H](c2ccc(Cl)cc2)SC(=O)N1C(=O)NC1CCCCC1")
"active"
>>> category("COP(=S)(OC)Oc1ccc(SC)c(C)c1")
"inactive"
>>> category("CCC(C)(NC(=O)c1cc(Cl)c(C)c(Cl)c1)C(=O)CCl (stereo unspecified)")
"inactive"
